# Tested on: 883617-216-R-J1-PDC tumor spheroids, viability;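 further: spheroids exposed to agents for 7 days before the viability read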
# measurement protocol: Anticancer human tumor 883617-216-R-J1-PDC patient-derived bladder carcinoma cell line growth inhibition [PI3K]
# condition info: second compound 0.316 µM; first compound 0.0316 µM; hits give low values; spheroids with HUVEC and MSC
measured attribute: viability, T/C (%)

compound | recorded number
Cn1ncnc1[C@H]1c2n[nH]c(=O)c3cc(F)cc(c23)N[C@@H]1c1ccc(F)cc1 + COc1c(OCCCN2CCOCC2)ccc2c3n(c(=NC(=O)c4cnc(N)nc4)nc12)CCN3 | 5.74
Cn1ncnc1[C@H]1c2n[nH]c(=O)c3cc(F)cc(c23)N[C@@H]1c1ccc(F)cc1 + CC(Nc1ccc2c(c1)OCCn1cc(N3C(=O)OCC3C(F)F)nc1-2)C(N)=O | 22.8
C=CC(=O)N1CCN(c2nc(=O)n(-c3c(C)ccnc3C(C)C)c3nc(-c4c(O)cccc4F)c(F)cc23)C(C)C1 (stereo not drawn) + Cc1nc(NC(=O)N2CCCC2C(N)=O)sc1-c1ccnc(C(C)(C)C(F)(F)F)c1 | 32.5
